- System: NCI-H226 lung
- ASSAY PROCEDURE: NCI tumour cell line growth inhibition, 48 h
Assign Satisfied to entries whose TGI meets or exceeds 70 µM; assign Not satisfied to the rest.

Field: example entries. Status: answers known.
MOLECULE	ASSIGNED CATEGORY
O[C@@]1(c2cccs2)c2cccc(Cl)c2[C@](O)(c2cccs2)c2cccc(Cl)c21	Not satisfied
CCC1=C(C)/C(=C/c2[nH]c(C(Br)Br)c(CC)c2C)N=C1C(Br)Br	Satisfied
O=c1[nH]c(=O)n(C2CC(O)C(CO)O2)cc1NN=NCCc1ccccc1 (stereo not given)	Satisfied
O=C(c1ccco1)C1CC(c2ccc3ccccc3c2O)=NN1 (stereo not given)	Satisfied
O=C(O)CN=C(C(=NCC(=O)O)c1ccccc1)c1ccccc1	Satisfied
Oc1c(C(Nc2cccc3ccccc23)c2ccccc2)ccc2cccnc12 (stereo not given)	Not satisfied
O=S1(=O)NNC(=NCc2ccc(Cl)c(Cl)c2)c2ccccc21	Satisfied
COC(=O)[C@H]1[C@H]2C[C@@H]3c4[nH]c5cc(OC)ccc5c4CCN3C[C@H]2C[C@@H](OC(=O)c2cc(OC)c(OC)c(OC)c2)[C@@H]1OC	Not satisfied
CC(=O)[CH-]C(=O)c1ccccc1.CC(=O)[CH-]C(=O)c1ccccc1.COc1cccc([O-])c1[O-].[Ti+4]	Satisfied

For the next question, use this molecule.
Query: Test whether the molecule CCC(C)C(C(=O)N/N=C1/SCC(=O)N1C)C(=O)N/N=C1/SCC(=O)N1C (stereo not given) records TGI of 70 µM or higher.
Reply: Satisfied
